tgt: BCL-XL (Homo sapiens (Human))
Sequence (Q07817 1-212): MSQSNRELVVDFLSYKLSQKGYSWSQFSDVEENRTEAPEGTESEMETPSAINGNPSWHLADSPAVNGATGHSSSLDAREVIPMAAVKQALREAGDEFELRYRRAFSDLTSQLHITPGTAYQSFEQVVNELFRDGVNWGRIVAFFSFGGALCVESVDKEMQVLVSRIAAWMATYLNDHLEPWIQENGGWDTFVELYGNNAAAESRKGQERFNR
assay method text: Protein-protein interaction assay BCL-XL/Bad BH3 peptide (BCL-XL assay, TR-FRET)
condition info: read-out: BCL-XL Assay IC50 (median)
parameter: IC50

The molecule listed as CCc1c2c(nn1C)C(CCOC)OCCCCn1c(C(=O)O)c(CCCOc3cccc4cc(F)ccc34)c3ccc(Cl)c-2c31 (single isomer, unassigned; enantiomer 1) [Example 42] shows IC50 equal to 15 µM

The molecule listed as Cc1c2c(nn1C)C(CCN1CCOCC1)OCCCCn1c(C(=O)O)c(CCCOc3cccc4cc(F)ccc34)c3ccc(F)c-2c31 (racemic) [Example 19] shows IC50 equal to > 20 µM

The molecule listed as CCc1c2c(nn1C)C(CCN1CCOCC1)OCCCCn1c(C(=O)O)c(CCCOc3cccc4cc(F)ccc34)c3ccc(F)c-2c31 (single isomer, unassigned; enantiomer 2) [Example 51] shows IC50 equal to > 20 µM

The molecule listed as CCc1c2c(nn1C)C(CCN1CCOCC1)OCCCCn1c(C(=O)O)c(CCCOc3cccc4ccccc34)c3ccc(F)c-2c31 (racemic) [Example 10] shows IC50 equal to > 20 µM

The molecule listed as CCC1OCCCCn2c(C(=O)O)c(CCCOc3cccc4ccccc34)c3ccc(Cl)c(c32)-c2c1nn(C)c2C (racemic) [Example 25] shows IC50 equal to > 20 µM

The molecule listed as CCc1c2c(nn1C)C(CCN1CCN(C)CC1)OCCCCn1c(C(=O)O)c(CCCOc3cccc4cc(F)ccc34)c3ccc(Cl)c-2c31 (racemic) [Example 68] shows IC50 equal to > 20 µM
